Entries and their measured Transition 2 Ti Mean follow.
# System tested: IP3K-KD (human IP3K-KD A isoform, residues 187–461) (Homo sapiens)
# Construct: human IP3K-KD A isoform (residues 187–461); GST (cleaved yes); made in house; host or cells: Escherichia coli BL21 star (DE3)
# Assay method text: Fluorescence thermal shift analysis (Tycho NT.6, inflection temperature Ti)
# Format: binding
# Measurement context: source data of Fig. 6c, N 3
Number, no unit, nothing else.

Example cases with answers are listed next.
Compound: O=P(O)(O)OC[C@@H]1O[C@H](CO)[C@@H](OP(=O)(O)O)[C@H](OP(=O)(O)O)[C@H]1O [7a–s]
Transition 2 Ti Mean: 56.1

Compound: O=P(O)(O)O[C@@H]1[C@@H](O)[C@H](OP(=O)(O)O)C[C@@H](O)[C@H]1OP(=O)(O)O [3-s]
Transition 2 Ti Mean: 57.4

Compound: O=P(O)(O)O[C@@H]1O[C@H](CO)[C@@H](OP(=O)(O)O)[C@H](OP(=O)(O)O)[C@H]1O [6a–s, β-D-glucopyranosyl 1,3,4-trisphosphate]
Transition 2 Ti Mean: 57.3

Compound: CO[C@@H]1O[C@H](CO)[C@@H](O[C@H]2[C@H](O)[C@H](O)[C@@H](OP(=O)(O)O)[C@H](OP(=O)(O)O)[C@H]2O)[C@H]1OP(=O)(O)O [compound 9, D-chiro-inositol ribophostin]
Transition 2 Ti Mean: 54.5

Compound: O=P(O)(O)O[C@@H]1[C@@H](O)[C@H](CO)[C@@H](OP(=O)(O)O)[C@H](OP(=O)(O)O)[C@H]1O (racemic) [5-s]
Transition 2 Ti Mean: 57.0

Now examine the next entry.
Exercise: Record O=P(O)(O)O[C@@H]1[C@H](O)[C@@H](O)[C@@H](OP(=O)(O)O)[C@H](OP(=O)(O)O)[C@H]1O [4-s, L-chiro-inositol 2,3,5-trisphosphate] : what is its Transition 2 Ti Mean with IP3K-KD (human IP3K-KD A isoform, residues 187–461) (Homo sapiens)?
Key: 57.3

###

# System tested: IP3K-KD (human IP3K-KD A isoform, residues 187–461) (Homo sapiens, UniProt P23677)
# Construct: human IP3K-KD A isoform (residues 187–461); GST (cleaved yes)
# Sequence (P23677 187-461): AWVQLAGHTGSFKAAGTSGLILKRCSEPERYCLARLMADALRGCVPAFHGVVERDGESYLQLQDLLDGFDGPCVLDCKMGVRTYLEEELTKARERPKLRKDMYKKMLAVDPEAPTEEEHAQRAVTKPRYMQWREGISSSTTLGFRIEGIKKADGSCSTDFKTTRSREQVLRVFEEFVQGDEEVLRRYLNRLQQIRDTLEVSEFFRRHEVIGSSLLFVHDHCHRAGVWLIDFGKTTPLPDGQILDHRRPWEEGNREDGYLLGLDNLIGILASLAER
# Assay method text: Ligand displacement assay: fluorescence polarization (anisotropy) of 2-FITC-InsP3/IP3K-KD complex
# Measurement context: 100 nM IP3K-KD, 2 nM 2-FITC-InsP3, 20 mM HEPES pH 7.5, 1 mM EDTA, 50 mM KCl; n=4 replicates; 5-s and 5-p racemic; read-out: IC50, displacement of 2-FITC-InsP3 from IP3K-KD
Endpoint: IC50 (nM)
Number in nM, nothing else.

Exercise: Find the recorded IC50 belonging to O=P(O)(O)O[C@H]1[C@H](O)[C@@H](OP(=O)(O)O)[C@H](OP(=O)(O)O)[C@@H](OP(=O)(O)O)[C@H]1O [InsP4, D-myo-inositol 1,3,4,5-tetrakisphosphate, reference compound] and report it.
Key: 60

###

Entries and their measured Ti, transition 1 (mean inflection temperature) follow.
# System tested: IP3K-KD (human IP3K-KD A isoform, residues 187–461) (Homo sapiens, UniProt P23677)
# Construct: human IP3K-KD A isoform (residues 187–461); GST (cleaved yes); made in house; host or cells: Escherichia coli BL21 star (DE3)
# Assay method text: Fluorescence thermal shift analysis (Tycho NT.6, inflection temperature Ti)
# Assay type: binding
# Measurement context: 10 μM IP3K-KD, 100 μM chiral or 200 μM racemic ligand, AMP-PNP or ADP, 100 μM MgCl2; mean ± SD, n=3

Example cases with answers are listed next.
Compound: O=P(O)(O)OC[C@@H]1O[C@H](CO)[C@@H](OP(=O)(O)O)[C@H](OP(=O)(O)O)[C@H]1O [7a–s]
Experimental value: 49.7 ± 0.4 ºC
//
Compound: O=P(O)(O)O[C@@H]1[C@@H](O)[C@H](CO)[C@@H](OP(=O)(O)O)[C@H](OP(=O)(O)O)[C@H]1O (racemic) [5-s]
Experimental value: 51.3 ± 0.2 ºC
//
Compound: O=P(O)(O)O[C@@H]1[C@@H](O)[C@H](OP(=O)(O)O)C[C@@H](O)[C@H]1OP(=O)(O)O [3-s]
Experimental value: 52.0 ± 0.2 ºC
//
Compound: O=P(O)(O)O[C@@H]1[C@H](O)[C@H](O)[C@@H](OP(=O)(O)O)[C@H](OP(=O)(O)O)[C@H]1O [InsP3, D-myo-inositol 1,4,5-trisphosphate, reference compound]
Experimental value: 52.9 ± 0.2 ºC
//
Compound: O=P(O)(O)O[C@H]1O[C@H](CO)[C@@H](OP(=O)(O)O)[C@H](OP(=O)(O)O)[C@H]1O [6b–s, α-D-glucopyranosyl 1,3,4-trisphosphate]
Experimental value: 45.7 ± 0.5 ºC

Exercise: Record O=P(O)(O)O[C@H]1[C@H](O)[C@@H](OP(=O)(O)O)[C@H](OP(=O)(O)O)[C@@H](OP(=O)(O)O)[C@H]1O [InsP4, D-myo-inositol 1,3,4,5-tetrakisphosphate, reference compound] : what is its Ti, transition 1 (mean inflection temperature) with IP3K-KD (human IP3K-KD A isoform, residues 187–461) (Homo sapiens, UniProt P23677)?
Key: 53.5 ± 0.2 ºC

Exercise: Then this compound: O=P(O)(O)O[C@@H]1[C@H](O)[C@@H](O)[C@@H](OP(=O)(O)O)[C@H](OP(=O)(O)O)[C@H]1O [4-s, L-chiro-inositol 2,3,5-trisphosphate]
Key: 51.7 ± 0.1 ºC

Exercise: Then this compound: O=P(O)(O)O[C@@H]1[C@@H](O)[C@H](O)[C@@H](OP(=O)(O)O)[C@H](OP(=O)(O)O)[C@H]1O [1-s, L-scyllo-inositol 1,2,4-trisphosphate]
Key: 55.6 ± 0.1 ºC

Exercise: Then this compound: CO[C@@H]1O[C@H](CO)[C@@H](O[C@H]2[C@H](O)[C@H](O)[C@@H](OP(=O)(O)O)[C@H](OP(=O)(O)O)[C@H]2O)[C@H]1OP(=O)(O)O [compound 9, D-chiro-inositol ribophostin]
Key: 44.5 ± 0.4 ºC

Exercise: Then this compound: O=P(O)(O)OC[C@H]1O[C@H](CO)[C@@H](OP(=O)(O)O)[C@H](OP(=O)(O)O)[C@H]1O [7b–s]
Key: 45.6 ± 0.7 ºC

Exercise: Then this compound: O=P(O)(O)O[C@@H]1O[C@H](CO)[C@@H](OP(=O)(O)O)[C@H](OP(=O)(O)O)[C@H]1O [6a–s, β-D-glucopyranosyl 1,3,4-trisphosphate]
Key: 51.5 ± 0.2 ºC

Exercise: Then this compound: O=P(O)(O)O[C@@H]1[C@@H](O)[C@H](OP(=O)(O)O)[C@@H](OP(=O)(O)O)[C@H](OP(=O)(O)O)[C@H]1O [1-p]
Key: 54.7 ± 0.2 ºC

Exercise: Then this compound: O=P(O)(O)OCC1C(O)C(OP(=O)(O)O)C(O)C(OP(=O)(O)O)C1OP(=O)(O)O (racemic) [5-p]
Key: 52.1 ± 0.1 ºC

Exercise: Then this compound: CO[C@@H]1O[C@H](CO)[C@@H](O[C@H]2O[C@H](CO)[C@@H](OP(=O)(O)O)[C@H](OP(=O)(O)O)[C@H]2O)[C@H]1OP(=O)(O)O [compound 8, ribophostin]
Key: 44.2 ± 0.2 ºC

Exercise: Then this compound: O=P(O)(O)O[C@@H]1[C@@H](O)[C@@H](O)[C@@H](OP(=O)(O)O)[C@H](OP(=O)(O)O)[C@H]1O [2-s, D-myo-inositol 1,4,6-trisphosphate]
Key: 53.1 ± 0.3 ºC
